- Test system: U-251
- testProtocol: NCI tumour cell line growth inhibition, 48 h
Active and inactive are the calls of the source. Cut-off read from the data, not from the text of the source: active = GI50 up to about 1.1 µM and inactive = higher.
property: GI50

| compound | GI50 |
| --- | --- |
| CN(C)c1ccc(/C=C(/NC(=O)c2ccccc2)C(=O)Nc2ccccc2C(=O)O)cc1 | > 100 µM (inactive) |

Query: GI50; subject: O=C1C(Cl)=C(c2ccc([N+](=O)[O-])cc2)C(=O)c2c(O)cccc21
0.8 µM (active)

Query: GI50; subject: Clc1ccc(Cl)c(/N=N\c2cc3c4c(c2)CCN4CCC3)c1
> 10 µM (inactive)

Query: GI50; subject: CCOC(=O)C1(Cc2ccccc2)CCCCCN1 (stereo not given)
> 100 µM (inactive)

====

- System: DU-145
- testProtocol: NCI tumour cell line growth inhibition, 48 h
Calls of active or inactive are those of the source. No stated cut-off is given here; in the data, active = GI50 up to about 1.1 µM and inactive = higher.
# valid calls are active, inactive; nothing else

| compound | assayTarget | assignedCategory |
| --- | --- | --- |
| O=C1c2cccc3cccc(c23)C(=O)N1CCCNCCCCNCCCNCCCN1C(=O)c2cccc3cccc(c23)C1=O | DU-145 | active |
| CCOC(=O)/C(=C\c1ccc(C#N)cc1)C(C)=O | DU-145 | inactive |
| COC(C)(C)C1(O)CC[C@@H](C)CC1=O (stereo partly drawn) | DU-145 | inactive |

Moving on to another compound below.
For C#CCSc1cnc2ccccc2c1Sc1c[nH]c2ccccc2c1=O , what call appears in the results of this test?
inactive

====

The entries below come with measured GI50 values attached.
- System: IGROV-1
- testProtocol: NCI tumour cell line growth inhibition, 48 h
Activity calls are given as the source filed them. Rule as the data show it: active = GI50 up to about 1.1 µM and inactive = higher.

Completed entries (count: 5):
| molecule | result |
| --- | --- |
| COc1ccc(C(=O)Cc2ccc(Cl)cc2)cc1OC | > 100 µM (inactive) |
| CC(C)=C1CCC(CN2CCOCC2)C1=O (centres undefined) | 20.3 µM (inactive) |
| COc1cc2ccc1NC(=O)N1CCN(CC1)C(=O)Nc1ccc(cc1OC)-c1ccc(c(OC)c1)NC(=O)N1CCN(CC1)C(=O)Nc1ccc-2cc1OC | > 100 µM (inactive) |
| COC(=O)C1CCC(=O)N1C(=O)Cc1ccc(OC)cc1 (centres undefined) | > 100 µM (inactive) |
| Cc1c(N=C(S)Nc2ccc(Cl)cc2)c(=O)n(-c2ccccc2)n1C | > 100 µM (inactive) |

Query: GI50; subject: COc1ccc(NC(=O)/C(=N\NC(=O)C[n+]2ccccc2)c2c(O)c3ccc(O)cc3oc2=O)c([N+](=O)[O-])c1
> 100 µM (inactive)

Query: GI50; subject: CC(=O)OCc1cc(OC(C)=O)c2cc3c(OC(C)=O)cccc3c(OC(C)=O)c2c1
14.5 µM (inactive)

Query: GI50; subject: Cc1ccc2c(c1)OC1Nc3ccccc3C1=C2O (centres undefined)
29.9 µM (inactive)

Query: GI50; subject: COc1cccc2c1C(=O)c1c(O)c3c(c(O)c1C2=O)C[C@@](O)(C(C)O)C[C@@H]3OC1CC(N)C(O)C(C)O1 (some centres undefined)
2.2 µM (inactive)

Query: GI50; subject: COCOc1cc(OC)ccc1C/C(=N/O)C(=O)OC
> 100 µM (inactive)

Query: GI50; subject: Cc1ccn2c(c1)nc1nc3ccccc3nc12
> 100 µM (inactive)

Query: GI50; subject: CSc1cc(-c2cccs2)sc1-c1cc(SC)c(-c2sc(-c3sc(-c4cccs4)cc3SC)cc2SC)s1
> 100 µM (inactive)
